# measurement.context: 313.15 K; 101 kPa; Liquid
assay.endpoint: mass density (kg/m3)
Hi! Could you send only the number? It should be in kg/m3, unit omitted.

Q: Output mass density of CCCCCO [pentan-1-ol]
Ans: 799.817

Q: Determine its reported mass density: CCCO [propan-1-ol]
Ans: 787.466

Q: Retrieve mass density measured for CCC(C)O (stereo unspecified) [butan-2-ol] and print it.
Ans: 789.632

Q: Return value of mass density for input CCCCO [butan-1-ol] , no commentary.
Ans: 794.147

Q: Return mass density for the following compound: CC(C)(C)O [2-methylpropan-2-ol]
Ans: 764.884

Q: Return mass density (reported value) for this compound: Clc1ccccc1 [chlorobenzene]
Ans: 1084.82
